# measured_target: HLA-A*01:01
# experimental_protocol: IEDB peptide-MHC binding, purified MHC/direct/fluorescence; filed as Kd, often an IC50 or EC50 that approximates it; bounds were set here for any values at or beyond the usual limits of such assays
# settings: source organism: Yersinia pestis
result_type: Kd

seq_string	test_result
TMPELAWAV	≥ 20 µM

====

# measured_target: HLA-B*40:01
# experimental_protocol: IEDB peptide-MHC binding, purified MHC/direct/fluorescence; filed as Kd, often an IC50 or EC50 that approximates it; bounds were set here for any values at or beyond the usual limits of such assays
# settings: source organism: Yellow fever virus
pKd: −log10 of the molar value.
result_type: pKd

seq_string	result_type	test_result
PHAATIRVL	pKd	≤ 4.70

====

# measured_target: HLA-A*02:19
# experimental_protocol: IEDB peptide-MHC binding, purified MHC/direct/fluorescence; filed as Kd, often an IC50 or EC50 that approximates it; bounds were set here for any values at or beyond the usual limits of such assays
# settings: source organism: Vibrio cholerae O139
pKd: −log10 of the molar value.

seq_string	pKd
EKDSNHNVL	≤ 4.70

====

# measured_target: HLA-B*40:02
# experimental_protocol: IEDB peptide-MHC binding, purified MHC/competitive/radioactivity; filed as Kd, often an IC50 or EC50 that approximates it; bounds were set here for any values at or beyond the usual limits of such assays
# settings: source organism: Mammarenavirus juninense
// values below are reported Kd
result_type: Kd (nM)

seq_string	result_type	test_result
HDLPLLCNL	Kd	15.2
AETGSQGVYM	Kd	184

====

# measured_target: HLA-A*29:02
# experimental_protocol: IEDB peptide-MHC binding, purified MHC/competitive/radioactivity; filed as Kd, often an IC50 or EC50 that approximates it; bounds were set here for any values at or beyond the usual limits of such assays
# settings: source organism: Lymphocytic choriomeningitis virus (strain Armstrong)
pKd: −log10 of the molar value.
result_type: pKd

seq_string	measured_target	result_type	sign	test_result
FTSDVKAAVI	HLA-A*29:02	pKd	≤	4.51
RYQVVECKEV	HLA-A*29:02	pKd	≤	4.15
DLMGVPYCNY	HLA-A*29:02	pKd	=	6.83
DYFESFSSFF	HLA-A*29:02	pKd	=	9.45

====

# measured_target: HLA-B*15:01
# experimental_protocol: IEDB peptide-MHC binding, purified MHC/direct/fluorescence; filed as Kd, often an IC50 or EC50 that approximates it; bounds were set here for any values at or beyond the usual limits of such assays
# settings: source organism: Ebola virus - Eckron (Zaire, 1976)

seq_string	Kd
ILNRKAIDF	372 nM

====

# measured_target: HLA-B*27:03
# experimental_protocol: IEDB peptide-MHC binding, purified MHC/competitive/fluorescence; filed as Kd, often an IC50 or EC50 that approximates it; bounds were set here for any values at or beyond the usual limits of such assays
# settings: source organism: Bacillus cereus ATCC 4342

seq_string	Kd
GLFWGGIWY	≥ 20 µM

====

# measured_target: HLA-A*69:01
# experimental_protocol: IEDB peptide-MHC binding, purified MHC/direct/fluorescence; filed as Kd, often an IC50 or EC50 that approximates it; bounds were set here for any values at or beyond the usual limits of such assays
# settings: source organism: Vibrio cholerae
pKd: −log10 of the molar value.

seq_string	pKd
DTDISQLHH	≤ 4.70
YFRNSGMTY	≤ 4.70
IVKQGRDAL	≤ 4.70
IHYAGWVSL	≤ 4.70
FLILCSVLL	5.38
